# Lookup of reported d(H4,O2) keyed by entry
Target: MASP-2 CCP2-SP (Homo sapiens (Human), UniProt O00187)
Sequence (O00187 445-686): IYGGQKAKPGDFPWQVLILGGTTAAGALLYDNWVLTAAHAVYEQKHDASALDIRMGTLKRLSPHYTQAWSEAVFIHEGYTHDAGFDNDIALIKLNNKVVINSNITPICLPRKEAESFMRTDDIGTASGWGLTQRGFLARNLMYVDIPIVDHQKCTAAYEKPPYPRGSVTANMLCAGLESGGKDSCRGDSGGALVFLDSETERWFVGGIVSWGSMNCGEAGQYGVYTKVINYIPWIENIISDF
Sequence (O00187 364-432 partner): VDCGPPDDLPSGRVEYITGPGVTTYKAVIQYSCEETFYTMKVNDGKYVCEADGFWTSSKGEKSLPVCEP
Assay: MASP-2 co-crystallization, X-ray crystallography and structure analysis (H-bonds, van der Waals contacts)
Set-up: unit not given beside the values
Settings: Table A5-1 pharmacophore: distance between elements, S2/S1 region
measuredParameter: d(H4,O2)

{"compound": "Cc1cnc(NCCc2ccccc2)c(=O)n1CC(=O)NCc1ccc2nc(N)[nH]c2c1", "testTarget": "MASP-2 CCP2-SP (Homo sapiens (Human), UniProt O00187)", "experimentalResult": 5.11}
{"compound": "C[C@H](NC(=O)[C@H](N)CCc1ccccc1)C(=O)NCc1ccc(N)nc1.Cl.Cl [1007_2]", "testTarget": "MASP-2 CCP2-SP (Homo sapiens (Human), UniProt O00187)", "experimentalResult": 2.76}
{"compound": "C[C@H](NC(=O)[C@H]1C[C@@H](c2ccccc2)CCN1)C(=O)NCc1cc(Cl)ccc1O.Cl [1078_8]", "testTarget": "MASP-2 CCP2-SP (Homo sapiens (Human), UniProt O00187)", "experimentalResult": 2.53}
{"compound": "C[C@H](NC(=O)[C@@H](CCc1ccccc1)NCc1ccc(C(=O)N2CCOCC2)cc1)C(=O)NCc1ccc(C(=N)N)cc1.Cl.Cl", "testTarget": "MASP-2 CCP2-SP (Homo sapiens (Human), UniProt O00187)", "experimentalResult": 7.90}

====

Target: MASP-2 CCP2-SP (Homo sapiens (Human), UniProt O00187)
Assay: MASP-2 co-crystallization, X-ray crystallography and structure analysis (H-bonds, van der Waals contacts)
Conditions: Table A7-2; between pharmacophore elements of the bound compound
Counter-ions that a name gives are not always drawn.
# Lookup of reported Pharmacophore torsion angle a(O1, O2, N2, CA2) keyed by entry
measuredParameter: Pharmacophore torsion angle a(O1, O2, N2, CA2)

{"molecule": "Cc1nc(N)ccc1CNC(=O)[C@H](C)NC(=O)[C@H]1C[C@H](Cc2ccccc2Br)CN1.O=C(O)C(F)(F)F.O=C(O)C(F)(F)F [1372_A]", "experimentalResult": 129.48}
{"molecule": "C[C@H](NC(=O)[C@H](N)CCc1ccccc1)C(=O)NCc1ccc(C(=N)N)cc1 [compound 1024]", "experimentalResult": 139.71}
{"molecule": "C[C@H](NC(=O)[C@H]1C[C@@H](c2ccccc2)CN1)C(=O)NCc1ccc2c(N)nccc2c1.Cl.Cl [1089_A]", "experimentalResult": 137.41}
{"molecule": "CC(NC(=O)C1CC(Cc2ccccc2)CN1)C(=O)NCc1cnc2c(c1)c(Cl)cn2C.Cl.Cl (stereo not shown) [1450_B]", "experimentalResult": 137.59}
{"molecule": "C[C@H](NC(=O)[C@H](N)C1Cc2ccccc2C1)C(=O)NCc1ccc2c(N)nccc2c1.Cl.Cl [1088_B]", "experimentalResult": 134.51}
{"molecule": "Cc1nc(N)ccc1CNC(=O)[C@H](C)NC(=O)[C@H]1C[C@H](Cc2cc(-c3ccccc3)cs2)CN1 [compound 1399, Dihydrochloride]", "experimentalResult": 126.87}
{"molecule": "C[C@H](NC(=O)[C@H]1C[C@@H](c2ccccc2)CCN1)C(=O)NCc1cc(Cl)ccc1O.Cl [1078_14]", "experimentalResult": 134.23}

====

Molecular target: UniProt:O00187
Test: MASP-2 co-crystallization, X-ray crystallography and structure analysis (H-bonds, van der Waals contacts)
Parameters: unit not given beside the values
Conditions: Table A2-13; MASP-2 TRP 655 N
Structures can show the parent of a compound that is named as a salt.
measuredParameter: van der Waals contact distance TRP 655 atom N

{"compound": "C[C@H](NC(=O)[C@H](N)CCc1cc(Cl)cc(Cl)c1)C(=O)NCc1ccc(C(=N)N)cc1", "testTarget": "UniProt:O00187", "experimentalResult": 3.76}
{"compound": "Cc1nc(N)ccc1CNC(=O)[C@H](C)NC(=O)[C@H]1C[C@H](Cc2ccc3ccccc3c2)CN1", "testTarget": "UniProt:O00187", "experimentalResult": 3.9}
{"compound": "N=C(N)c1ccc(CNC(=O)C(CF)NC(=O)[C@H](N)CCc2ccccc2)cc1 (some centres unmarked) [compound 1050, Dihydrochloride]", "testTarget": "UniProt:O00187", "experimentalResult": 3.74}
{"compound": "C[C@H](NC(=O)[C@H](N)CCc1ccccc1)C(=O)NCc1ccc(C(=N)N)cc1", "testTarget": "UniProt:O00187", "experimentalResult": 3.78}
{"compound": "C[C@H](NC(=O)[C@H]1C[C@@H](c2ccccc2)CCN1)C(=O)NCc1cnc2[nH]cc(Cl)c2c1", "testTarget": "UniProt:O00187", "experimentalResult": 3.68}
{"compound": "C[C@H](NC(=O)[C@H]1C[C@H](Cc2ccccc2)CN1)C(=O)NCc1cnc2c(c1)c(Cl)cn2C [compound 1450, Dihydrochloride]", "testTarget": "UniProt:O00187", "experimentalResult": 3.66}
{"compound": "Cc1nc(N)ccc1CNC(=O)[C@H](C)NC(=O)[C@H]1C[C@H](Cc2cccc(-c3ccccc3)c2)CN1", "testTarget": "UniProt:O00187", "experimentalResult": 3.85}
{"compound": "C[C@H](NC(=O)[C@H]1C[C@H](c2ccccc2)CN1)C(=O)NCc1ccc(C(=N)N)cc1", "testTarget": "UniProt:O00187", "experimentalResult": 3.58}
{"compound": "C[C@H](NC(=O)[C@H]1C[C@H](Cc2ccccc2)CN1)C(=O)NCc1cnc2[nH]cc(Cl)c2c1", "testTarget": "UniProt:O00187", "experimentalResult": 3.68}
{"compound": "CNC(=O)c1ccc2c(=O)n(Cc3ccccc3)c(=O)n(CC(=O)NCc3ccc(C(=N)N)cc3)c2c1", "testTarget": "UniProt:O00187", "experimentalResult": 3.89}
{"compound": "C[C@H](NC(=O)[C@@H](CCc1ccccc1)NCCCc1ccc(O)cc1)C(=O)NCc1ccc(C(=N)N)cc1", "testTarget": "UniProt:O00187", "experimentalResult": 3.79}
{"compound": "C[C@H](NC(=O)[C@H](N)CCc1cccc(Cl)c1)C(=O)NCc1ccc(C(=N)N)cc1", "testTarget": "UniProt:O00187", "experimentalResult": 3.83}
{"compound": "C[C@H](NC(=O)c1cc(-c2ccccc2)c[nH]1)C(=O)NCc1ccc(C(=N)N)cc1", "testTarget": "UniProt:O00187", "experimentalResult": 3.81}
{"compound": "C[C@H](NC(=O)[C@H](N)CCc1ccccc1)C(=O)NCc1cc(Cl)ccc1O [compound 1031, Hydrochloride]", "testTarget": "UniProt:O00187", "experimentalResult": 3.28}

====

Biological target: MASP-2 CCP2-SP (Homo sapiens (Human))
Assay: MASP-2 co-crystallization, X-ray crystallography and structure analysis (H-bonds, van der Waals contacts)
Conditions: Table A6-2 pharmacophore angle
Counter-ions that a name gives are not always drawn.
# Lookup of reported a(O1, O2, H3) keyed by entry

{"compound": "Cc1nc(N)ccc1CNC(=O)C(C)NC(=O)[C@H]1C[C@H](c2cccc(-c3ccccc3)c2)CN1 (stereo in doubt)", "a(O1, O2, H3)": 147.57}
{"compound": "CNC(=O)c1ccc2c(=O)n(Cc3ccccc3)c(=O)n(CC(=O)NCc3ccc(C(=N)N)cc3)c2c1", "a(O1, O2, H3)": 154.86}
{"compound": "Cc1nc(N)ccc1CNC(=O)[C@H](C)NC(=O)[C@H]1C[C@@H](c2ccccc2)CCN1CCC(=O)O [compound 1411, Trifluoroacetate salt]", "a(O1, O2, H3)": 142.75}
{"compound": "Cc1nc(N)ccc1CNC(=O)C(C)NC(=O)C1CC(c2cccc3ccccc23)CCN1.Cl.Cl (stereo not shown) [1297_6]", "a(O1, O2, H3)": 144.79}

====

Target: MASP-2 CCP2-SP (Homo sapiens (Human), UniProt O00187)
Assay: MASP-2 co-crystallization, X-ray crystallography and structure analysis (H-bonds, van der Waals contacts)
Design: unit not given beside the values
Settings: Table A2-4
Counter-ions that a name gives are not always drawn.
# Lookup of reported van der Waals contact distance, MASP-2 TYR 607 atom CD1 keyed by entry
measuredParameter: van der Waals contact distance, MASP-2 TYR 607 atom CD1

{"compound": "C[C@H](NC(=O)[C@H]1C[C@H](Cc2ccccc2)CN1)C(=O)NCc1ccc(C(=N)N)cc1", "experimentalResult": 3.85}
{"compound": "Cc1cc(Cl)cc(CNC(=O)[C@H](C)NC(=O)[C@H]2C[C@H](Cc3ccccc3)CN2)c1O", "experimentalResult": 3.83}
{"compound": "Cc1nc(N)ccc1CNC(=O)[C@H](C)NC(=O)[C@H]1C[C@@H](c2cccc3ccccc23)CCN1", "experimentalResult": 3.81}
{"compound": "C[C@H](NC(=O)[C@H](N)CCc1ccccc1)C(=O)NCc1cc(Cl)ccc1O [compound 1031, Hydrochloride]", "experimentalResult": 3.85}
{"compound": "C[C@H](NC(=O)[C@H]1C[C@H](Cc2ccccc2)CN1)C(=O)NCc1cnc2[nH]cc(Cl)c2c1", "experimentalResult": 3.81}
{"compound": "Cc1nc(N)ccc1CNC(=O)[C@H](C)NC(=O)[C@H]1C[C@H](Cc2ccccc2)CN1", "experimentalResult": 3.78}
{"compound": "Cc1nc(N)ccc1CNC(=O)[C@H](C)NC(=O)[C@H]1C[C@H](Cc2ccccc2Br)CN1 [compound 1372, Di-trifluoroacetate salt]", "experimentalResult": 3.77}
